Source listed as the RNAGym collection of RNA variant scans (doi:10.1002/anie.201605470).

So I've got a bunch of variants here, and I need their self-cleavage values.
B1: Osa-1-4 twister ribozyme (parent)
chain: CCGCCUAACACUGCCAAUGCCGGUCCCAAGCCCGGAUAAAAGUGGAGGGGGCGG

Variants of: B1
measurement_protocol: self-cleavage, relative activity (ratio to wild type); higher = more cleavage; co-transcriptional

Give the measured self-cleavage for "CCGCCUAAUACUGCCAAUACCGGUCCCAAGCCCGGAUAAAAGUGGAGGGGGCGG"
0.26

Give the measured self-cleavage for "CCGCCUAACACUGCCAAUGCCCGUCCCAAGCCCGGGUAAAAGUGGAGGGGGCGG"
0.07

Give the measured self-cleavage for "CCGCCUAACACUGCCAAUGCCGGUCCCAAGCCCGGAUAAAGGUGCAGGGGGCGG"
0.05

Give the measured self-cleavage for "CCGCCUAACAGUGCCAAUGCCGGUCCCAAGCCCGGAUAAAAGUGGAGGGUGCGG"
0.42

Give the measured self-cleavage for "CCGCCUAGCACUGCCAAUGCCGGUCCCAAGCCCGGAUAAGAGUGGAGGGGGCGG"
0.18

Give the measured self-cleavage for "CCGCCUAACACUGCCAAUGCCGGUCCCAAGCCCGGAUAAAAGUGGAGGGUUCGG"
0.57

Give the measured self-cleavage for "CCGCCUAACGCUGCCAAUGCCGGUCCCAAGCCCGGACAAAAGUGGAGGGGGCGG"
0.95

Give the measured self-cleavage for "CCGCCUAACACUGCUAAAGCCGGUCCCAAGCCCGGAUAAAAGUGGAGGGGGCGG"
0.51

Give the measured self-cleavage for "CCGCCUAACACUGCAAAUGCCGGUCCCAAGCCCGGAUAAAAGUGGAGGGGACGG"
0.1

Give the measured self-cleavage for "CCGCCUAACACUGCCAAUGCCGGUCCCAAGCCCGGAUAAAAUUGGUGGGGGCGG"
0.03

Give the measured self-cleavage for "CCGCCUAACACUGCCAAUGCCGGUCCCAUGCCCGGAUAAAAGUGGAAGGGGCGG"
0.03

Give the measured self-cleavage for "CCGCCUCACACUACCAAUGCCGGUCCCAAGCCCGGAUAAAAGUGGAGGGGGCGG"
0.02

Give the measured self-cleavage for "CCGCCUAACACUGCCAAUGGCGGUCACAAGCCCGGAUAAAAGUGGAGGGGGCGG"
0.03

Give the measured self-cleavage for "CCGCCUAAGACUGCCAAUGUCGGUCCCAAGCCCGGAUAAAAGUGGAGGGGGCGG"
0.73

Give the measured self-cleavage for "CCGCCUAACACUGCCAAUGACGGUCCCAAGCCCGGCUAAAAGUGGAGGGGGCGG"
0.81

Give the measured self-cleavage for "CCGCCUAACACUUCCCAUGCCGGUCCCAAGCCCGGAUAAAAGUGGAGGGGGCGG"
0.04

Give the measured self-cleavage for "CCGCCUAACACUGCCAAUGCCGGUCCCAAGCCCGGAUAAAAGUGGAGGAGGCGU"
0.39

Give the measured self-cleavage for "CCGCCUAACACUGCCAAUGCCGGUCCCAAGCCCGGAUAAACGUGGAGGGAGCGG"
0.37

Give the measured self-cleavage for "CCGCCUAACACUGCCAAUGCCGGUCCCAAGCCCGGAGAAAAUUGGAGGGGGCGG"
0.15

Give the measured self-cleavage for "CCGCCUAUCACUGCCAAUGCCGGUCCCACGCCCGGAUAAAAGUGGAGGGGGCGG"
0.02

Give the measured self-cleavage for "CCGCCUAACACUGCCAAUGCCGGUCCCAAGCCCGGAUAAAAGUGUACGGGGCGG"
0.04

Give the measured self-cleavage for "CCGCCUAACCCUGCCAAUGCCGGUCCCAAGCCCGGAUAAAAGUGGAAGGGGCGG"
0.02

Give the measured self-cleavage for "CCGCCUAACUCUGCCAAUGCCGGUCCCAAGCCCGGAUAAAAGUUGAGGGGGCGG"
0.08

Give the measured self-cleavage for "CCGCCUAACACUGGCAAUACCGGUCCCAAGCCCGGAUAAAAGUGGAGGGGGCGG"
0.24

Give the measured self-cleavage for "CCGCCUAACACUGCCGAUGCCGGUCCCAAGCCCGGAUAAAAGUGGAGGGGGUGG"
0.99

Give the measured self-cleavage for "CCGCCUAACACUGCCAAUCCCGGUCCCAAUCCCGGAUAAAAGUGGAGGGGGCGG"
0.02

Give the measured self-cleavage for "CCGCCUAACACUGCCAAUUCCGGUCCCAAGCACGGAUAAAAGUGGAGGGGGCGG"
0.04

Give the measured self-cleavage for "CCGCCUAACACUGCCAAUGCGGGUCGCAAGCCCGGAUAAAAGUGGAGGGGGCGG"
0.05

Give the measured self-cleavage for "CCGCCUAACACUGCCAAUGCCGGUCUCAAGCCCGGUUAAAAGUGGAGGGGGCGG"
1

Give the measured self-cleavage for "CCGCCUAACAAUGCCAAUGCCGGUCCCAAGCCCGGAUAAAAGUGGAUGGGGCGG"
0.06

Give the measured self-cleavage for "CCGCCUAACACGGCCAAUGCCGGUCCCAAGCCCGGAUAAAAGUGGAGGGGGUGG"
0.78

Give the measured self-cleavage for "CCGCCUAACACUGCCAAUGCCGGUCCCAAGCCCGGAUAAACGUGGAGGUGGCGG"
0.12

Give the measured self-cleavage for "CCGCCUAACACUGCCAAUGCCGGUCCCAAGACCGGAUAAAAGUGGAGGGGGCGC"
0.04

Give the measured self-cleavage for "CCGCCUGACACUGCCAAUGCCGGUCCCCAGCCCGGAUAAAAGUGGAGGGGGCGG"
0.2

Give the measured self-cleavage for "CCGCCUAACACUGCCAAUGCCGGUCCCAAGCCCGGGUCAAAGUGGAGGGGGCGG"
1.07

Give the measured self-cleavage for "CCGCCUAACACUGCCCAUGCCGGUCCCAAGCCCGGAUAAAAGAGGAGGGGGCGG"
0.7

Give the measured self-cleavage for "CCGCCUAACACUGCCAAUGCCGGUCCCAAGACCGGAUAGAAGUGGAGGGGGCGG"
0.03

Give the measured self-cleavage for "CCGCCUAACACUGCCAAUGCCGUUCCCAAGCCCGGACAAAAGUGGAGGGGGCGG"
0.16

Give the measured self-cleavage for "CCGCCUAACACUGCCAAUGCCGGCCCCAAGCCCUGAUAAAAGUGGAGGGGGCGG"
0.07

Give the measured self-cleavage for "CCGCCUCACACUGCCAAUGCCGGUCCCAAGCCCGGAUAAAAGGGGAGGGGGCGG"
0.06

Give the measured self-cleavage for "CCGCCUAACACGCCCAAUGCCGGUCCCAAGCCCGGAUAAAAGUGGAGGGGGCGG"
0.56

Give the measured self-cleavage for "CCGCCUAACACUGCCAAUGCCGGUCCCAACCCCGGAUAAAAGUGGAGGGGGCUG"
0.04

Give the measured self-cleavage for "CCGCCUGAGACUGCCAAUGCCGGUCCCAAGCCCGGAUAAAAGUGGAGGGGGCGG"
0.29

Give the measured self-cleavage for "CCGCCUAAUACUGCCAAUGCCGGUCCCAAGCCCGGAUAAAAGUGGAGGGGGUGG"
0.87

Give the measured self-cleavage for "CCGCCUAACACUGCCAGUGCCGGUCCCACGCCCGGAUAAAAGUGGAGGGGGCGG"
0.07

Give the measured self-cleavage for "CCGCCUAACACUGCCAAUGCGGGUCCCAAGCCCUGAUAAAAGUGGAGGGGGCGG"
0.89

Give the measured self-cleavage for "CCGCCUAACACUGCCAAUGCCGGUCCGACGCCCGGAUAAAAGUGGAGGGGGCGG"
0.02

Give the measured self-cleavage for "CCGCCUAACACUGCUAAUGCCGGUCCCAAGCCCGGAUAGAAGUGGAGGGGGCGG"
0.21

Give the measured self-cleavage for "CCGCCUAACUCUGCCAAUGCCGGUCCCAAGCCCGGAUAAAAGUGGAGGGUGCGG"
0.04

Give the measured self-cleavage for "CCGCCUAACACUGCCAAUGCCGGUCCCAAUCCCGGAUAAAAGUGGAGGGGGAGG"
0.04

Give the measured self-cleavage for "CCGCCUAACACUGCCAAUGCCGGUACCAAGCCCGGAUAAAAGAGGAGGGGGCGG"
0.06

Give the measured self-cleavage for "CCGCCUAACACUGCCAAUGCCGGUCCCAAGCCCGGAUACACGUGGAGGGGGCGG"
0.37

Give the measured self-cleavage for "CCGCCUAACACUGCCAAUGCCGGUCCCAAGCCGGGAUAAAAGAGGAGGGGGCGG"
0.06

Give the measured self-cleavage for "CCGCCUAACACUGCCAAUGCAGGUGCCAAGCCCGGAUAAAAGUGGAGGGGGCGG"
0.07

Give the measured self-cleavage for "CCGCCUAACACUGCCAAUGCCGAUCCCAAUCCCGGAUAAAAGUGGAGGGGGCGG"
0.04

Give the measured self-cleavage for "CCGCCUAACACUGCCAAUGCCGGUCCCAUGACCGGAUAAAAGUGGAGGGGGCGG"
0.02

Give the measured self-cleavage for "CCGCCUACCACUGCCAAUGUCGGUCCCAAGCCCGGAUAAAAGUGGAGGGGGCGG"
0.09

Give the measured self-cleavage for "CCGCCUAACACUGCCAAUGCAGGUCCCAAGCCCGGAUAAAUGUGGAGGGGGCGG"
0.87

Give the measured self-cleavage for "CCGCCUAACACUGCCAAUGCCAGCCCCAAGCCCGGAUAAAAGUGGAGGGGGCGG"
0.16

Give the measured self-cleavage for "CCGCCUAACAUUGCCAAUUCCGGUCCCAAGCCCGGAUAAAAGUGGAGGGGGCGG"
0.1

Give the measured self-cleavage for "CCGCCUAAGACUGCCAAUGCCGGUCCGAAGCCCGGAUAAAAGUGGAGGGGGCGG"
0.07

Give the measured self-cleavage for "CCGCCUAACACUGCCAAUGCCGGUCCCAAGCCUGGAUAAUAGUGGAGGGGGCGG"
0.15

Give the measured self-cleavage for "CCGCCUAACGCUGCCAAUGCCGGUCCCAAGCCCGGAUAAAAGUGGAGGGUGCGG"
0.98

Give the measured self-cleavage for "CCGCCUAACAAUGCCAAUGCCGGUCCCAAGCCCGGAUAAAAGUGGAGGGAGCGG"
0.3

Give the measured self-cleavage for "CCGCCUAAUACUGCCAAUGCCGGUCCCAAGCCCGGAUAAAAGUGGAGGGAGCGG"
0.28

Give the measured self-cleavage for "CCGCCUAUCACUGCCAAUGCCGGUCCCAAGCCCGGCUAAAAGUGGAGGGGGCGG"
0.09

Give the measured self-cleavage for "CCGCCUAACACUGCCAAUGCCGGUCCCAAGCCCGGAUAAAAGUUCAGGGGGCGG"
0.06

Give the measured self-cleavage for "CCGCCUAACACUGCCAAUGCCGGUCCCAAGCCCCAAUAAAAGUGGAGGGGGCGG"
0.39

Give the measured self-cleavage for "CCGCCUAACUCUGCCAAUGCCGGUCCCAAGCCCGGAUAAAAGUGGAGGGGGCGU"
0.21

Give the measured self-cleavage for "CCGCCUAACACUGCGAAUGCCGGUCCCAAGCCCGGAGAAAAGUGGAGGGGGCGG"
0.72

Give the measured self-cleavage for "CCGCCUAAUACUGCCAAUGCCGGUCCCAAGCCCGGAUAAAAGUGGAGGGUGCGG"
0.86

Give the measured self-cleavage for "CCGCCUAACACUGCCAAUGCCGGUCCCAUGCCCGGAUAAAAGUGGAGGAGGCGG"
0.03

Give the measured self-cleavage for "CCGCCUAACACUGCUAUUGCCGGUCCCAAGCCCGGAUAAAAGUGGAGGGGGCGG"
0.64

Give the measured self-cleavage for "CCGCCUAACACUGCCAAUGGCGGUCCCAAGCCCGGAUAAAAUUGGAGGGGGCGG"
0.02

Give the measured self-cleavage for "CCGCCUAACACUGCCAAUGCCGGUCCCAAGCCCGGAUAAAGGUGGAGGGUGCGG"
0.91

Give the measured self-cleavage for "CCGCCUAACAAUGCCAAUGCCGGUCCCAAGCCCGGAUAAAAGUGGAGGGGGCGU"
0.71

Give the measured self-cleavage for "CCGCCUAACACUGCCAAUGCCGGUCCCAAGCCCGGAUAGAAGUCGAGGGGGCGG"
0.93

Give the measured self-cleavage for "CCGCCUAACACAGACAAUGCCGGUCCCAAGCCCGGAUAAAAGUGGAGGGGGCGG"
0.08

Give the measured self-cleavage for "CCGCCUAAUACUGCCAAUGCCGGUCCCAAGCCCGGAUAAAAGUGGAGGGCGCGG"
0.73

Give the measured self-cleavage for "CCGCCUAACACUGCCAAUGCCGGUCCCAAGCCCGGAUGAAAGUGGAAGGGGCGG"
0.19

Give the measured self-cleavage for "CCGCCUAACACUGCCAAUGCCGGUCCCAAGCCCGCAUAAGAGUGGAGGGGGCGG"
0.12

Give the measured self-cleavage for "CCGCCUAACACUGCCAAUGCCGGUCCCAAGCCCGGAUAAAAGUGGAGGCGGCGU"
0.08

Give the measured self-cleavage for "CCGCCUAACACUGCCAAUGCCCGUCCCAAGCCCGGAUAAAAGUGGAGGGAGCGG"
0.34

Give the measured self-cleavage for "CCGCCUAACACUGCCAAUGCCGGUCCCAAGCCCGGAUAAAAGUGGAGGAGGCGC"
0.11

Give the measured self-cleavage for "CCGCCUAGCACUGCCAAUGCCGGUCCCAAGCCCGUAUAAAAGUGGAGGGGGCGG"
0.35

Give the measured self-cleavage for "CCGCCUAACACUGCCAAUGCCGGUCCCAACCCCGGAUAAAAGUGGAGGGUGCGG"
0.05

Give the measured self-cleavage for "CCGCCUAACACUGACAAUGCCGGUCCCCAGCCCGGAUAAAAGUGGAGGGGGCGG"
0.09

Give the measured self-cleavage for "CCGCCUAACACUACCAAUGCCGGUCCCAAGCCCGGAUUAAAGUGGAGGGGGCGG"
0.11

Give the measured self-cleavage for "CCGCCUAACACUGCCAAUGCCGGUCCCAGGCCCGGAUAAAAGUGGCGGGGGCGG"
0.03

Give the measured self-cleavage for "CCGCCUAACACUGCCGAUGCCGGUCCCAAGCCCGGAUAAAAGUGGAGGGGGCGA"
0.98

Give the measured self-cleavage for "CCGCCUAACACUGCCGAUGCCGGUCCCUAGCCCGGAUAAAAGUGGAGGGGGCGG"
0.92
